Test system: HCT-15 colon
Experiment: NCI tumour cell line growth inhibition, 48 h; in the data active = GI50 below about 0.43 µM; inactive = the rest
Assign a class; possible classes are T = active, F = inactive

Exercise: // param item: C=C1CCC2C3(C)COC(c4ccccc4Cl)OC3CCC2(C)C1/C=C/C1=CCOC1=O (stereo not given) ; yields the recorded call
Solution: F

Exercise: // param item: "Cc1cc(O)c(-c2ccc([C@@H](C)CN(C)C)cc2)c2c1[nH]c(=O)c1sccc12" ; yields the recorded call
Solution: F

Exercise: // param item: "COc1ccc(S(=O)(=O)N(C(C)=O)c2ccccc2/C=C/c2cc[n+]([O-])cc2)cc1" ; yields the recorded call
Solution: F

Exercise: // param item: "COC(=O)N[C@H]1CCc2c(Cl)c(OC)c(OC)c(OC)c2-c2ccc(SC)c(=O)cc21" ; yields the recorded call
Solution: T

Exercise: // param item: O=C(/C=C/C12c3ccccc3C(c3ccccc31)C1C(=O)NC(=O)C12)c1ccccc1 (stereo not given) ; yields the recorded call
Solution: F

###

Test system: NCI-H460 lung
Experiment: NCI tumour cell line growth inhibition, 48 h
MEASUREMENT LABEL: TGI

[[record]]
compound = "COc1ccc2c(c1)CCc1c-2n[nH]c1-c1[nH]nc2c1CCc1cc(OC)ccc1-2"
measurement_label = "TGI"
experimental_value = "> 100 µM"

[[record]]
compound = "Clc1ccc(/C(=C/c2ccccc2)Cn2ccnc2)cc1"
measurement_label = "TGI"
experimental_value = "> 100 µM"

[[record]]
compound = "O=C1N=C(Nc2nc(-c3csc(NC4=NC(=O)/C(=C\\c5ccccc5)S4)n3)cs2)S/C1=C/c1ccccc1"
measurement_label = "TGI"
experimental_value = "> 50 µM"

[[record]]
compound = "COc1cc(CNc2oc(-c3ccccc3)c(-c3ccccc3)c2C#N)cc(CN2CCN(C)CC2)c1O"
measurement_label = "TGI"
experimental_value = "3.55 µM"


Exercise: What value of TGI has been reported for the following compound? "CNC(=O)c1cncc(/C=C/c2ccccc2Cl)c1"
Solution: > 25 µM

###

Test system: SNB-19 CNS
Experiment: NCI tumour cell line growth inhibition, 48 h; in the data active = GI50 below about 0.43 µM; inactive = the rest
Assign a class; possible classes are active, inactive

[[record]]
compound = "C=C1CCC2C3(C)COC(c4ccccc4Cl)OC3CCC2(C)C1/C=C/C1=CCOC1=O (stereo not given)"
subject_of_test = "SNB-19 CNS"
classification = "inactive"

[[record]]
compound = "C[CH2][Sn]([CH2]C)([O]C(=O)c1ccc(F)cc1)[O]C(=O)c1ccc(F)cc1"
subject_of_test = "SNB-19 CNS"
classification = "inactive"

[[record]]
compound = "CC[PH+](CC)CC.[Cl][Au]"
subject_of_test = "SNB-19 CNS"
classification = "inactive"

[[record]]
compound = "O=C([O-])CC(=O)[O-].[NH-][C@@H]1CCCC[C@H]1[NH-].[Pt+4]"
subject_of_test = "SNB-19 CNS"
classification = "inactive"

[[record]]
compound = "Cc1cc(O)c(-c2ccc([C@@H](C)CN(C)C)cc2)c2c1[nH]c(=O)c1sccc12"
subject_of_test = "SNB-19 CNS"
classification = "inactive"


Exercise: // param item: O=C1NC(c2ccccc2)C2(C(=O)O)CN(C3CC3)c3cc(N4CCNCC4)c(F)cc3C2N1 (stereo not given) ; yields the recorded call
Solution: inactive

Exercise: // param item: CCC1=C(CC2NCCc3ccccc32)CC2c3cc(OC)c(OC)cc3CCN2C1 (stereo not given) ; yields the recorded call
Solution: inactive

Exercise: // param item: O=P(O)(O)OCC1OC(n2cnc3c(NCc4ccccc4)ncnc32)C(O)C1O (stereo not given) ; yields the recorded call
Solution: inactive

Exercise: // param item: "O=C(Nc1cccc(C(F)(F)F)c1)Oc1ccc(Cl)c2cccnc12" ; yields the recorded call
Solution: inactive

Exercise: // param item: "COc1ccc(S(=O)(=O)N(C(C)=O)c2ccccc2/C=C/c2cc[n+]([O-])cc2)cc1" ; yields the recorded call
Solution: active

###

Test system: OVCAR-4 ovarian
Assay: NCI tumour cell line growth inhibition, 48 h
MEASUREMENT LABEL: TGI

Recorded TGI, per entry:
[[record]]
compound = "CC(=O)/C(=N\\Nc1ccc(Cl)cc1)C(C)=Nc1ccc(C)cc1"
subject_of_test = "OVCAR-4 ovarian"
experimental_value = "> 100 µM"

[[record]]
compound = "COc1cc2cnc3c4cc(OCc5ccccc5)ccc4ccc3c2cc1OC"
subject_of_test = "OVCAR-4 ovarian"
experimental_value = "39.8 µM"

[[record]]
compound = "O=C([C@H](O)[C@@H](O)c1cccc(Cl)c1)C12CC3CC(CC(C3)C1)C2"
subject_of_test = "OVCAR-4 ovarian"
experimental_value = "7.49 µM"

[[record]]
compound = "CC(C)c1ccc(NC(=O)Cc2ccc(Nc3ncnc4cc(-c5cnn(CCN(C)C)c5)ccc34)cc2)cc1"
subject_of_test = "OVCAR-4 ovarian"
experimental_value = "3.05 µM"

[[record]]
compound = "C=C1C(OC(C)=O)CC(OC(C)=O)C2(C)C(OC(C)=O)C(OC(C)=O)C3=C(C)C(OC(=O)/C=C/c4ccccc4)CC(C(OC(C)=O)C12)C3(C)C (stereo not drawn)"
subject_of_test = "OVCAR-4 ovarian"
experimental_value = "> 100 µM"

[[record]]
compound = "C[C@@H]1CC[C@@]2(NC1)O[C@H]1C[C@H]3[C@@H]4CC[C@H]5C[C@@H](O)CC[C@]5(C)[C@H]4CC[C@]3(C)[C@H]1[C@@H]2C"
subject_of_test = "OVCAR-4 ovarian"
experimental_value = "71.7 µM"

[[record]]
compound = "CSc1ccc(/C=C2\\N=C(c3ccccc3)N(c3nc4cc(Cl)c(F)cc4s3)C2=O)cc1"
subject_of_test = "OVCAR-4 ovarian"
experimental_value = "82.7 µM"

[[record]]
compound = "COCCNc1cncc(C(N)=O)c1"
subject_of_test = "OVCAR-4 ovarian"
experimental_value = "> 100 µM"


Exercise: What value of TGI has been reported for the following compound? CN(C)/N=N/c1nc2c(c(=O)n(C)c(=O)n2C)n1CC1CO1 (stereo not drawn)
Solution: 29.4 µM

Exercise: What value of TGI has been reported for the following compound? "CC(C)(C)N=NC(C)(C)N=C=O"
Solution: > 100 µM

###

Test system: M14 melanoma
Experiment: NCI tumour cell line growth inhibition, 48 h
Attribute: GI50

Exercise: What value of GI50 has been reported for the following compound? "CS(=O)(=O)N(c1cc(-c2ccc3ncnc(Nc4ccc(F)c(Cl)c4)c3c2)cnc1Cl)S(C)(=O)=O"
Solution: 1170 nM

Exercise: What value of GI50 has been reported for the following compound? "CNC(=O)c1cncc(/C=C/c2ccccc2Cl)c1"
Solution: > 25000 nM

Exercise: What value of GI50 has been reported for the following compound? "Cc1cc(O)c(-c2ccc([C@@H](C)CN(C)C)cc2)c2c1[nH]c(=O)c1sccc12"
Solution: 705 nM

Exercise: What value of GI50 has been reported for the following compound? "C[CH2][Sn]([CH2]C)([O]C(=O)c1ccc(F)cc1)[O]C(=O)c1ccc(F)cc1"
Solution: 17500 nM

Exercise: What value of GI50 has been reported for the following compound? "C[N+](C)=c1ccc2nc3c(cc(NCCCNc4cc5oc6cc(=[N+](C)C)ccc-6nc5c5ccccc45)c4ccccc43)oc-2c1"
Solution: 1630 nM

###

Test system: MDA-N
Test: NCI tumour cell line growth inhibition, 48 h
MEASUREMENT LABEL: TGI

[[record]]
compound = "CCOC(=O)c1csc(NC(=O)CCN2CCCC2)n1"
subject_of_test = "MDA-N"
experimental_value = "> 100 µM"

[[record]]
compound = "CC1(C)OCC(C2OC(C)(C)OC2[C@H]2O[C@@]3(O)[C@H]4[C@H](C=CC[C@@H]42)[C@@H](OCc2ccccc2)[C@H](OCc2ccccc2)[C@H]3OCc2ccccc2)O1 (stereo partly drawn)"
subject_of_test = "MDA-N"
experimental_value = "44.8 µM"

[[record]]
compound = "C=C1[C@@H]2CCC3[C@]4(C)C(CC[C@@]5(C)C(=O)O[C@H](O)[C@@H]45)[C@H](O)[C@]3(C2)[C@H]1OC1OC(CO)C(O)C(O)C1O (stereo partly drawn)"
subject_of_test = "MDA-N"
experimental_value = "> 50 µM"

[[record]]
compound = "CCOC(=O)/C=C/c1cccc(F)c1"
subject_of_test = "MDA-N"
experimental_value = "> 100 µM"

[[record]]
compound = "O=c1/c(=N\\Nc2ccccc2)c2cccc3ccc4cccc1c4c32"
subject_of_test = "MDA-N"
experimental_value = "> 100 µM"


Exercise: What value of TGI has been reported for the following compound? CSc1nc(Cl)c2c(n1)Sc1nc3ccccc3n1C2O (stereo not drawn)
Solution: > 100 µM

Exercise: What value of TGI has been reported for the following compound? "CNC(=S)N1CCN(C(C)=O)C1=S"
Solution: > 100 µM

Exercise: What value of TGI has been reported for the following compound? "N#CCCN(CCC#N)c1ccc(C(N=Nc2ccccc2)=Nc2ccc(F)cc2)cc1"
Solution: > 100 µM

Exercise: What value of TGI has been reported for the following compound? CN(C)/N=N/c1nc2c(c(=O)n(C)c(=O)n2C)n1CC1CO1 (stereo not drawn)
Solution: 46.7 µM

Exercise: What value of TGI has been reported for the following compound? "CC1(C)N=C(N)N=C(N)N1c1cccc(Cl)c1"
Solution: > 100 µM

Exercise: What value of TGI has been reported for the following compound? "O=C(c1ccc([N+](=O)[O-])cc1)N1CCCC1"
Solution: > 100 µM

Exercise: What value of TGI has been reported for the following compound? "O=C1C=CC(=O)c2c(O)c(N3CCC[C@@H]3CO)c(Cl)c(O)c21"
Solution: 3.15 µM

Exercise: What value of TGI has been reported for the following compound? "Cc1cc(-c2cc(C(C)(C)C)c(O)c(C(C)(C)C)c2)c(C)cc1-c1cc(C(C)(C)C)c(O)c(C(C)(C)C)c1"
Solution: > 100 µM

The reported measurements were obtained from PubChem BioAssay (NCI).
